TARGET OR SYSTEM: Bromodomain adjacent to zinc finger domain protein 2B (Homo sapiens)
TEST: qHTS Assay for Inhibitors of BAZ2B; also: nearly all actives have a fitted effect of over 60% in size
EXPERIMENTAL CONDITIONS: AlphaScreen BAZ2B-H3K14Ac peptide displacement; series mostly up to 114 µM
Hit rate of the full screen: of about 360,000 compounds, about 16,000 (4.4%) were called active. Inconclusive results (about 9%) are left out. Calls follow the shape of the dose curve; as a rule, active = well fitted inhibition curve with a large enough effect; inconclusive = small, poorly fitted or top-dose-only effect; inactive = no such curve, though single readings can be large or run the other way. This is one part of a sample in which actives are shown more often than they occur.
Log the outcome using a class from active, inactive

These solved cases illustrate the format of a correct answer.
| MOLECULE | CLASS NAME |
| --- | --- |
| CCOC(=O)c1cc(NC(=O)c2ccc(F)cc2)c(=O)n2c1oc1ccccc12 | inactive |
| Cc1ccc(C2C=C(c3ccc(Cl)cc3)Nc3nc(NC(=O)CCC(=O)O)nn32)cc1 (centres undefined) | active |
| O=C(NC1CCCCC1)c1ccc2c(c1)N(Cc1ccc(Cl)cc1)C(=O)c1ccccc1S2=O (centres undefined) | inactive |
| CCc1ccc(-n2nnc(-c3nc(-c4ccccc4)no3)c2C)cc1 | inactive |

Consider the additional molecule presented here.
Which outcome did this test record for the molecule COc1ccc(N2C(=O)CSC23C(=O)N(Cc2cccc(F)c2)c2ccccc23)cc1Cl (centres undefined) ?
inactive

====

TARGET OR SYSTEM: Bromodomain adjacent to zinc finger domain protein 2B (Homo sapiens) (UniProt Q9UIF8)
Sequence (Q9UIF8 whole entry, looked up, the tested form may be a part): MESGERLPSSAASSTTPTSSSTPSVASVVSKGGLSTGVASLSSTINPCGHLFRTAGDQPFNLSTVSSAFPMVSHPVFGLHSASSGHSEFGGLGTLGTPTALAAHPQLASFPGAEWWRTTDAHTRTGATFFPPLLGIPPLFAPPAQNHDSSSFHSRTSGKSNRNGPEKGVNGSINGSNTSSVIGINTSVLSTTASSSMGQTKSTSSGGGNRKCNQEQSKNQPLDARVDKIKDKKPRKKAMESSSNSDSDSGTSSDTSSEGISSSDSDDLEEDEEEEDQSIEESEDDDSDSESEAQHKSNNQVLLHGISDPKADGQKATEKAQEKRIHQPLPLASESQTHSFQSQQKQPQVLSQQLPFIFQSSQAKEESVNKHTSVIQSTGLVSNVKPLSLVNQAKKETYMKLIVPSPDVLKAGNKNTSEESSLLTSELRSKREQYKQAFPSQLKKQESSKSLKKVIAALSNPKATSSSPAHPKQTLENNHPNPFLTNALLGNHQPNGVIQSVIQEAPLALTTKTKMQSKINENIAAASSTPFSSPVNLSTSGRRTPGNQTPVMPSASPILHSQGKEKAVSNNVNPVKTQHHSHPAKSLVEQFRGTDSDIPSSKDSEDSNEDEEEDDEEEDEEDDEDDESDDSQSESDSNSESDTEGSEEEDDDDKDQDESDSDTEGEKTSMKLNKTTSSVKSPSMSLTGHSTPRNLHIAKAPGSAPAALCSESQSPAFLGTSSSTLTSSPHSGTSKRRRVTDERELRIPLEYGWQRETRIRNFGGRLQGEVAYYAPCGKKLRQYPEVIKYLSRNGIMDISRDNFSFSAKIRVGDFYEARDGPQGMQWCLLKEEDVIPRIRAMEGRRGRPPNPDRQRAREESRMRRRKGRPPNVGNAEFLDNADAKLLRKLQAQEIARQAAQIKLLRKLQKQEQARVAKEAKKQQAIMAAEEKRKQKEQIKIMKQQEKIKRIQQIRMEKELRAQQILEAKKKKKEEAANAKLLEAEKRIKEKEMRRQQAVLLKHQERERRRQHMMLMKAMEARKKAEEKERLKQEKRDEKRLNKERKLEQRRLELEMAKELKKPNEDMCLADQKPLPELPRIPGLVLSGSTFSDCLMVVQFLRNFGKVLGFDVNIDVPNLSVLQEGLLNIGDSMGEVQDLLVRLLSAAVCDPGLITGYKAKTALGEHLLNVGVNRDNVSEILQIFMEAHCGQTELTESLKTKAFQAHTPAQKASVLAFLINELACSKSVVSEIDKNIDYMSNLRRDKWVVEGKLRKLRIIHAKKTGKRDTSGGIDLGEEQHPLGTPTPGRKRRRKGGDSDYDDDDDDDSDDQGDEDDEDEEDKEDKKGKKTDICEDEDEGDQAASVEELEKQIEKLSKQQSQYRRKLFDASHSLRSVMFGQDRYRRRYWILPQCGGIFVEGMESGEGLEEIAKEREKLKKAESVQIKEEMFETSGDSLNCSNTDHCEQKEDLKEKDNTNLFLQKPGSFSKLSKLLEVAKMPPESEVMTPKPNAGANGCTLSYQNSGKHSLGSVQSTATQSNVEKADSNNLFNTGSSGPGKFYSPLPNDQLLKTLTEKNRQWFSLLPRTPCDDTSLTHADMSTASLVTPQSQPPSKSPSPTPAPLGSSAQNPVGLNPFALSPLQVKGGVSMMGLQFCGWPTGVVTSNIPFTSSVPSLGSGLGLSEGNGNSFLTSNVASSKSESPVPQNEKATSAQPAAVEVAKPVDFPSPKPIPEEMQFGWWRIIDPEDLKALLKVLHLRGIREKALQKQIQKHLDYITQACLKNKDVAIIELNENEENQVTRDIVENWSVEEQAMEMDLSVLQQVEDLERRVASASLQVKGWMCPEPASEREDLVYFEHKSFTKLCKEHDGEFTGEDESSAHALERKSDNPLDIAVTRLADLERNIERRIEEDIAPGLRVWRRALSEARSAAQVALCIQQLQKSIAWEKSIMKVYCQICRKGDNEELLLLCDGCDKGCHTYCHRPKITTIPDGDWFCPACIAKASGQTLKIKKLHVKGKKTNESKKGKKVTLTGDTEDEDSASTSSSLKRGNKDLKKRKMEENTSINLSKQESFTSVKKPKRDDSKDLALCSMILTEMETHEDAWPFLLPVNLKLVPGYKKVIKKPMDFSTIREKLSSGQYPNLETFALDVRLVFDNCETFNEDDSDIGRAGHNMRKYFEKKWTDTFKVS
TEST: qHTS Assay for Inhibitors of BAZ2B; also: nearly all actives have a fitted effect of over 60% in size
EXPERIMENTAL CONDITIONS: AlphaScreen BAZ2B-H3K14Ac peptide displacement; series mostly up to 114 µM
The whole screen tested about 360,000 compounds, of which about 16,000 (4.4%) were called active. Roughly 9% stayed inconclusive and do not appear here. The call rests on the fitted dose curve; in most records, active means well fitted inhibition curve with a large enough effect; inconclusive means small, poorly fitted or top-dose-only effect; inactive means no such curve, though single readings can be large or run the other way. Many of the other results were omitted from the sample, so actives are more common in it than they were.
Log the outcome using a class from 1 (active), 0 (inactive)

These solved cases illustrate the format of a correct answer.
| COMPOUND | CLASS NAME |
| --- | --- |
| CC(C)NC(=O)C(=O)N/N=C/c1ccco1 | 0 |
| CCOCCCNC(=O)c1c(NC(=O)c2nc(SC)ncc2Cl)sc2c1CCCC2 | 0 |

Which outcome did this test record for the compound O=[N+]([O-])c1ccc(F)cc1Oc1nc(-c2cccnc2)nc2ccccc12 ?
0

Which outcome did this test record for the compound O=C(N/N=C/c1ccco1)c1ccc(C(=O)N/N=C/c2ccco2)o1 ?
1

Which outcome did this test record for the compound COc1ccccc1OCC(O)CN1CCOCC1 (stereo unspecified) ?
0

Which outcome did this test record for the compound COc1ccccc1C(=O)Nc1c(C(=O)Nc2ccc(C)cc2)oc2ccccc12 ?
0

Which outcome did this test record for the compound O=C(Cc1ccc([N+](=O)[O-])cc1)N/N=C/c1ccco1 ?
0

Which outcome did this test record for the compound CCCn1c(=N)n(CC(O)COc2ccccc2OC)c2ccccc21 (stereo unspecified) ?
0

Which outcome did this test record for the compound CCOc1ccccc1NC(=O)c1ccc2c(c1)CCN2S(=O)(=O)c1ccc(C)cc1 ?
0

Which outcome did this test record for the compound COc1ccc(N2CCN(C(=O)CSCc3nc(-c4ccccc4Cl)oc3C)CC2)cc1 ?
0

Which outcome did this test record for the compound COc1cc(-c2noc(-c3ccc(N4CCCC4)c([N+](=O)[O-])c3)n2)cc(OC)c1OC ?
0

====

TARGET OR SYSTEM: Bromodomain adjacent to zinc finger domain protein 2B (Homo sapiens) (UniProt Q9UIF8)
TEST: qHTS Assay for Inhibitors of BAZ2B; also: nearly all actives have a fitted effect of over 60% in size
EXPERIMENTAL CONDITIONS: AlphaScreen BAZ2B-H3K14Ac peptide displacement; series mostly up to 114 µM
Screen size: about 360,000 compounds; about 16,000 (4.4%) were called active. Roughly 9% stayed inconclusive and do not appear here. Calls come from the whole dose curve; as a rule, active = well fitted inhibition curve with a large enough effect; inconclusive = small, poorly fitted or top-dose-only effect; inactive = no such curve, though single readings can be large or run the other way. The sample holds actives, similar compounds and a random draw of the others, so the mix is not that of the screen.
Log the outcome using a class from active, inactive

| MOLECULE | CLASS NAME |
| --- | --- |
| Cc1cc(NC(=O)C2CCC(CNS(=O)(=O)c3ccc(Br)s3)CC2)ccc1Br (stereo unspecified) | inactive |
| CN(CCOc1ccccc1)C(=O)c1cc(-c2ccco2)nc2ccccc12 | active |
| COc1ccc(-n2cc(-c3ccccc3)c3c(=S)nc[nH]c32)cc1 | active |
| CCOC(=O)Cc1csc(NC(=O)CSc2nc(C)cc(=O)[nH]2)n1 | active |

Which outcome did this test record for the molecule C/C(=N\NC(N)=S)c1ccncc1 ?
active

Which outcome did this test record for the molecule COc1cc(OC)cc(C(=O)Nc2ccc3nc(Nc4cccc(C(F)(F)F)c4)cc(C)c3c2)c1 ?
inactive

Which outcome did this test record for the molecule CCCCc1nnc(NC(=O)CSc2nc(C)cc(=O)[nH]2)s1 ?
inactive

Which outcome did this test record for the molecule Cc1cc(C)c(NC(=O)CN2C(=O)c3cccnc3Oc3ccc(Cl)cc32)c(C)c1 ?
inactive

Which outcome did this test record for the molecule Cc1cn(C)c(CC(=O)NCc2ccccc2)c1C(=O)O ?
inactive

Which outcome did this test record for the molecule CCCNc1ncnc2c1c(-c1ccccc1)cn2-c1ccc(OCC)cc1 ?
inactive

Which outcome did this test record for the molecule N#Cc1ccc(CSc2nnc(-c3ccccn3)n2-c2ccc(Cl)cc2)cc1 ?
active

====

TARGET OR SYSTEM: Bromodomain adjacent to zinc finger domain protein 2B (Homo sapiens) (UniProt Q9UIF8)
TEST: qHTS Assay for Inhibitors of BAZ2B; also: nearly all actives have a fitted effect of over 60% in size
EXPERIMENTAL CONDITIONS: AlphaScreen BAZ2B-H3K14Ac peptide displacement; series mostly up to 114 µM
Out of some 360,000 compounds screened, about 16,000 (4.4%) were called active. Another 9% or so got no clear call; they are omitted. Calls follow the shape of the dose curve; as a rule, active = well fitted inhibition curve with a large enough effect; inconclusive = small, poorly fitted or top-dose-only effect; inactive = no such curve, though single readings can be large or run the other way. The sample holds actives, similar compounds and a random draw of the others, so the mix is not that of the screen.
Log the outcome using a class from active, inactive

| LINE NOTATION | CLASS NAME |
| --- | --- |
| Cc1ccc2c(Cl)c(C(=O)Nc3nn[nH]n3)sc2c1 | active |
| Cc1cc(=O)n(C)c(=O)n1CCCNc1ccccc1 | active |
| CCCC(=O)Nc1ccc(NC(=O)c2sc3ccccc3c2Cl)cc1 | inactive |
| Cc1ccc(-c2cc(C(=O)Nc3nn[nH]n3)c3ccccc3n2)c(C)c1 | inactive |
| O=C(c1cc(C(=O)N2CCN(c3ccc(F)cc3)CC2)cc([N+](=O)[O-])c1)N1CCN(c2ccc(F)cc2)CC1 | inactive |

Which outcome did this test record for the molecule CC(C)(C)c1ccc(S(=O)(=O)N2CCN(C(=O)c3cc(-c4ccc(Br)cc4)n[nH]3)CC2)cc1 ?
inactive

Which outcome did this test record for the molecule O=C(COc1ccc(Cl)cc1)Nc1ccc2c(c1)OCO2 ?
inactive

Which outcome did this test record for the molecule COc1ccc(-n2c(=O)c3c(c4cc(OC)ccc4n3C)n(Cc3cccc(C)c3)c2=O)cc1 ?
inactive

Which outcome did this test record for the molecule Cn1c(Nc2ccccc2)cc(=O)n(C)c1=O ?
inactive

Which outcome did this test record for the molecule Cc1cc2nc(C)n(CCCNC(=O)Nc3ccccc3)c2cc1C ?
inactive

====

TARGET OR SYSTEM: Bromodomain adjacent to zinc finger domain protein 2B (Homo sapiens)
TEST: qHTS Assay for Inhibitors of BAZ2B; also: nearly all actives have a fitted effect of over 60% in size
EXPERIMENTAL CONDITIONS: AlphaScreen BAZ2B-H3K14Ac peptide displacement; series mostly up to 114 µM
Out of some 360,000 compounds screened, about 16,000 (4.4%) were called active. Roughly 9% stayed inconclusive and do not appear here. Calls come from the whole dose curve; as a rule, active = well fitted inhibition curve with a large enough effect; inconclusive = small, poorly fitted or top-dose-only effect; inactive = no such curve, though single readings can be large or run the other way. Many of the other results were omitted from the sample, so actives are more common in it than they were.
Log the outcome using a class from TRUE = active, FALSE = inactive

These solved cases illustrate the format of a correct answer.
| COMPOUND | CLASS NAME |
| --- | --- |
| Cc1cc(C)cc(NC(=S)NCCc2c[nH]c3ccccc23)c1 | TRUE |
| CN(C(=O)CN1C(=O)/C(=C/c2ccc(Cl)cc2)SC1=S)C1CCS(=O)(=O)C1 (stereo not given) | FALSE |
| Cc1ccc(Cl)cc1N1CCN(C(=O)CN2C(=O)COc3ccc(S(=O)(=O)N4CCOCC4)cc32)CC1 | FALSE |
| CCN(C(=O)CN1C(=O)/C(=C/c2ccc(F)cc2)SC1=S)C1CCS(=O)(=O)C1 (stereo not given) | FALSE |
| Cc1cccc(N(C)C(=O)CS(=O)(=O)c2cccc3nsnc23)c1 | FALSE |
| CCc1nnc(NC(=O)c2cc(S(=O)(=O)N3CCCCC3)ccc2C)s1 | FALSE |

Which outcome did this test record for the compound O=C1/C(=C/c2cccs2)SC(=S)N1C1CCS(=O)(=O)C1 (stereo not given) ?
TRUE

Which outcome did this test record for the compound O=C(NCc1ccccc1)c1ccc2c(c1)nc1n2CCCCC1 ?
FALSE

Which outcome did this test record for the compound CCc1ccccc1NC(=O)c1sc2nc3c(cc2c1N)CN(Cc1ccccc1)CC3 ?
FALSE

Which outcome did this test record for the compound COc1ccc(NC(=O)c2cnc(NS(=O)(=O)c3ccccc3)nc2)cc1 ?
FALSE
